- Protocol Details: yeast display, Sf9 membrane polyspecificity reagent, FACS + sequencing; frameworks hold sequencing errors
Endpoint Label: polyreactivity (PSR sort gate)

[[record]]
biopolymer_sequence = "QVQLVESGGGLVEAGGSLRLICAASGFIFLSNGMGWYRQGPGKERELVAAISSSGGSTYYADSVKGRFTISRDNAKNTVYLQMNSLKPEDTAVYYCAAEQYSVYETGSYDYWGQGTQVTVSS"
result = "low polyreactivity"

[[record]]
biopolymer_sequence = "QFQLVESGGGLGQAGGSNRLSCAASGRIFNIYAMGCYRQSPGKERELVADITSGGTKYADSVKGRFTISRDNAKNTVYLQMNSLKPEDTAVDYCAAEYLYYGGVDYWGQGTQVTVSS"
result = "high polyreactivity"

[[record]]
biopolymer_sequence = "QVQLVESGGGLVQAGGSLRLSCAASGSTFGSYAMGWYRQAPGKERELVAAISWNGGRTYYADSVKGRFTISRDNAKNTVYFQRNSLKPEDTAVYYCAKVVKYQSGGGLEYWGQGTQVTVSS"
result = "high polyreactivity"

[[record]]
biopolymer_sequence = "HVQLVESGGGLVQAGGSLRLRSAASGRIFYYNAMGWYRQAPGKERELVASISWDASSTYYADSVKGLFTISRDNAKNTVYLQMNSLKPEDTAVYYCNKIHLYRQYDYWGQGTQVTVSS"
result = "low polyreactivity"

[[record]]
biopolymer_sequence = "QVQLVESGGGLVQAGGSLRLSCAASGIIFDYYAMGWYRPAPGKERELVAAINWNGGTPYYADSVKGRFTISRDYAKKTVFLQMNSLKPEDSAVYYCNTRGRYLMVDWGHGTQVTVSS"
result = "high polyreactivity"

[[record]]
biopolymer_sequence = "QVQLVDSGGGLVQAGGSLRLSCAASGRIFYVYAMGWYRQATGKERQLVASIRYSGATTYYADSVKGRFTISLDNAKNTVYLQMNSLKPEDTAVYYCAADTLGTPAYRYEYWGQGTQVTVSS"
result = "low polyreactivity"

[[record]]
biopolymer_sequence = "QVQLVESRGGLVQAGGSLRLSCAASGSTFYLNVMGWYIQAPGKERELVAAITYRGGRTSYADSVKGRFTISRDNAKNTVYLQMISLKPEDTAVYYCATPKYYGYYYWGHGTQVTVSS"
result = "high polyreactivity"

[[record]]
biopolymer_sequence = "QVQLVESGGGLVQAGASLRLSCAASGSIFSWYTMGWYRQAPGKERELVARITTSGGTTLYADSVKGRFTISRDNAKNTVYFQMNSLKPEDTAVYYCAADRSPYWRGYVRYNYWGQGTQVTVSS"
result = "high polyreactivity"


// returns reported polyreactivity (PSR sort gate) for input `QVQLVESGGGLVQAGGSLRLSCAASGITFYIYAMGWYRQAPGKERELVATISWSDGRTYYADSVKGRFTISRDNAKNTVYCQMNSLKPEDTAVYYCAADWWYYQFDYEYWGQGTQVTVSS`
low polyreactivity

Would you kindly repeat that for `QVQLVESGGGLVQAGGSLRLSCAASGSTFRYYAMGWYRQAPGKERELVAAITQSGGITYYADSVKGRFTISRDNAKNTVYLQMNSLKPEDTAVYYCAKRYYVDYDYWGQGTHVTVSS` ?
low polyreactivity

Would you kindly repeat that for `QVQLVESGGGLVQAGGSLRLSCAASGFTFTHYAMGWYRQAPGKERELVAAISTSGGSTYYADSVKGRFTISRDNAKNTVYLQMNSLKPEDTAVYYCAARRDGWVQWGYYYWGQGTQVTVSS` ?
low polyreactivity

Would you kindly repeat that for `QVQLVESGGGLVQAGGSLRLSCAASGITFSGNAMGWYIQARGKERELVAGISRRGGSTYYADSVKGSFTISRDNAKNTVYLQINCLKPEATAVYYCADGRDRYRGVAYDYWGQGTQVTVSS` ?
high polyreactivity

Would you kindly repeat that for `QVQLVESGGGLVQAGGSLRLSCAASGSTFYYNAMGWYRQAPGKERELVAAITSSGGRTYYADSVKGRFTISRDNAMNTVYLQMNSLKPEDTAFYYCAKREASSRWPYDYWGQGTQVTVSS` ?
low polyreactivity

---

- Protocol Details: yeast display, Sf9 membrane polyspecificity reagent, FACS + sequencing; frameworks hold sequencing errors
Endpoint Label: polyreactivity (PSR sort gate)

Worked cases, answers included:
[[record]]
biopolymer_sequence = "QVQLVESGGGLVQAGGSLRLSCAASGITFGVYGKGWYRQEPGKERELVAAISRTGGSTYYADSVKGRFTISRDNAKNTVYLQMNSLKPEDTAVYYCNARPVGRVIGDYWGQGTQVTVSS"
endpoint_label = "polyreactivity (PSR sort gate)"
result = "high polyreactivity"

[[record]]
biopolymer_sequence = "QVQLVESGGGLVQAGGSLRLSCAASGLTLYFYVMGWYRQAPGKERELVAAISSTGSTYYADSVKGRFSISRDNAKNTVYLQMNSLKPEDTAVYYCAARKRGWYGYWGQGTQVTVSS"
endpoint_label = "polyreactivity (PSR sort gate)"
result = "high polyreactivity"

[[record]]
biopolymer_sequence = "QVQLVESGGGLVQAGGSLRLSCAASGFTFSYYAMGWYRQAPGKERELVAAITFTGGSTYYADSVKGRFTISRDNAKNTVYLQMNSLKPEDTAVYYCAADWYYGDEYEYWGQGTQVTVSS"
endpoint_label = "polyreactivity (PSR sort gate)"
result = "high polyreactivity"

[[record]]
biopolymer_sequence = "QVQLVESGGGLVQAGGSLRLSCAASGSTSFTYMGWYRQAPGTEREVVAAIDESGGSTYYADSVKGRFTISRDNAKNTVYLQMNTLKPEDTAGYYCTRRYGRSYRWGNGYWGQGTQVTVSA"
endpoint_label = "polyreactivity (PSR sort gate)"
result = "low polyreactivity"


Pending sequence:
// returns reported polyreactivity (PSR sort gate) for input `QVQLVESGGGLVQAGGSLRLSCAASGFTFGAYAMGWYRQAPGKERELVAAITGSGGNTFYADSVKGRFTISRDNAKNSVYLEMNCLKTEDTAVYYCAKTWYPWSRYGYYRRYDSWGQGTQVTVSS`
low polyreactivity

---

- Protocol Details: yeast display, Sf9 membrane polyspecificity reagent, FACS + sequencing; frameworks hold sequencing errors
Endpoint Label: polyreactivity (PSR sort gate)

[[record]]
biopolymer_sequence = "QVQLVESGGGLVQAGGSLRLSCAASGSIFVRYAMGWYRQAPGKERELVAGITNSGGSTYYADSVKGRFTISRDNEKNTVYLQMNSLKPEDTAVYYCAADAGGWWYKYYYWGQGTQVTVSS"
result = "high polyreactivity"

[[record]]
biopolymer_sequence = "QDQLVESGGGLVQAGGSLRLSCAASGFIFENYTLGWYRLAPGKERELVAAITSSGGSTYYADSVKGRFTISRDNAKNTVYLPLNSLNPDVTAVYYCNKRWFRDYDYWGQGTQVTVSS"
result = "high polyreactivity"

[[record]]
biopolymer_sequence = "QVQLVESGGGLVQAGGSLRLSCAASGSTLGYNVMGCYIQAPGKERELVAAISGDGSTNYADSVKGRFTISRDNAKNTVYLQMNSLKPEDTAVYYCAARPGWFAGYEYWGQGTQVTVSS"
result = "low polyreactivity"

[[record]]
biopolymer_sequence = "QVQLVESGGGLVQAGGSLRLSCAASGRSFYNYAMGWYRQAPGKERELVAAISGSGGSTYYADSVKGRFTISRDNAKNSVYLQMNSLKPEDTAVYYCSTSGPQYYSRNFDSWGQGTQVTVSS"
result = "low polyreactivity"


// returns reported polyreactivity (PSR sort gate) for input `QVQLVESGGGLVQAGGSLRLSCAASGSTFRTYAKGWYRQAPGKERELVASITRRGGRTYYADSVKGRFTISRDNAKNTVYLQMYSLKPEDTAVYYCAAADQQYDYWGQGTQVTVTS`
high polyreactivity

Would you kindly repeat that for `QVQLEESGGGLVQAGGSLRLSCAASGLTFAYNTMGWYRQAPGKEREFVASISSSGGNTYYADSVKGRFTISRDNAKNTVYLQMNSLKPEDTAVYYCAAKKKYHYVASYKRFEYWGQGTQVTVSS` ?
low polyreactivity

Would you kindly repeat that for `QVQLVESGGGLVQAGGSLRLSCAASGRTFRRNAMGWYRQAPGKERELVAAISGGGSTNYADSVKGRFTISRDNAKNTVYLQMNSLKPEDTAVYYCNKRGTIWSGYWGQGTQVTVSS` ?
high polyreactivity

Would you kindly repeat that for `QVQLVESGGGLVQAGGSLRLSCAASGRTFDRNTMGWYRQAPGKERELVAAISGSSARTYYADSVKGRFTISRDNAKNTVYLQMNSLKPEDTAVYYCNAEYGARAQHYEGDSWGQGTQVTVSS` ?
high polyreactivity

Would you kindly repeat that for `QVQLVESGGRLVQAGGSLRLSCAASGSILTYYTMGWYRQAPGKERELVARISWSGSRTYYADSVKGRFTISRDNAKNTVYLQMNSLKPEDTAVYYCAAKANWYANYDYWGQGTQVTVSS` ?
high polyreactivity

Would you kindly repeat that for `QFQLVDSVRGLVQAGVSLRLSCAASGRIFVKYVIGSYRQAPGTESQLVAANRSYGGSPYYADSVKGRFTISRDNAKNTVYLQMNSLKPEDTAVYYCAKRLHYSAPRYTEYDEWGHGTQVTVSS` ?
high polyreactivity

Would you kindly repeat that for `QVQLVESGGGLVQAGGSLRLSCAASGSTFDSNDMGWYRQAPGKERELVAGITWSGASTYYADSVKGRFTISRDNAKNTVYLQMNSLKPEDTAVYYCAAGPWGTGHYVQGPVYYYRYDYWGQGTQVTVSS` ?
low polyreactivity
